# measurement_target: T6′A ELIC (Dickeya chrysanthemi, UniProt P0C7B7, T236A)
# Construct: expressed in transfected cells; host or cells: Xenopus laevis oocytes (cRNA injection)
# measurement_protocol: GABA activation of T6′A ELIC, two-electrode voltage clamp in Xenopus oocytes
# Format: cell-based, Erwinia chrysanthemii
# test_settings: GABA EC50, T6′A ELIC
pEC50: −log10 of the molar value.

mol_smiles	pEC50
NCCCC(=O)O	3.10

====

# measurement_target: F16′A ELIC (Dickeya chrysanthemi, UniProt P0C7B7, F246A)
# Construct: expressed in transfected cells; host or cells: Xenopus laevis oocytes (cRNA injection)
# measurement_protocol: Inhibition of GABA-elicited currents of F16′A ELIC in Xenopus oocytes
# Format: cell-based, Erwinia chrysanthemii
# test_settings: IC50, F16′A ELIC; inhibition measured at the GABA EC50
pIC50: −log10 of the molar value.
measured_endpoint: pIC50

mol_smiles	measured_endpoint	recorded_result
C=C(C)[C@@H]1[C@H]2OC(=O)[C@@H]1[C@]1(O)C[C@H]3O[C@]34C(=O)O[C@H]2[C@]14C	pIC50	4.80

====

# measurement_target: F16′T ELIC (Dickeya chrysanthemi, UniProt P0C7B7, F246T)
# Construct: expressed in transfected cells; host or cells: Xenopus laevis oocytes (cRNA injection)
# measurement_protocol: GABA activation of F16′T ELIC, two-electrode voltage clamp in Xenopus oocytes
# Type: cell-based, Erwinia chrysanthemii
# test_settings: GABA pEC50, F16′T ELIC
measured_endpoint: EC50

mol_smiles	measured_endpoint	recorded_result
NCCCC(=O)O	EC50	11.5 mM

====

# measurement_target: T6′S ELIC (Dickeya chrysanthemi, UniProt P0C7B7, T236S)
# Construct: expressed in transfected cells; host or cells: Xenopus laevis oocytes (cRNA injection)
# measurement_protocol: Inhibition of GABA-elicited currents of T6′S ELIC in Xenopus oocytes
# Format: cell-based, Erwinia chrysanthemii
measured_endpoint: IC50 (µM)

mol_smiles	recorded_result
C=C(C)[C@@H]1[C@H]2OC(=O)[C@@H]1[C@]1(O)C[C@H]3O[C@]34C(=O)O[C@H]2[C@]14C	68

====

# measurement_target: F16′S ELIC (Dickeya chrysanthemi, UniProt P0C7B7, F246S)
# Construct: expressed in transfected cells; host or cells: Xenopus laevis oocytes (cRNA injection)
# measurement_protocol: Inhibition of GABA-elicited currents of F16′S ELIC in Xenopus oocytes
# Type: cell-based, Erwinia chrysanthemii
pIC50: −log10 of the molar value.

mol_smiles	pIC50
C=C(C)[C@@H]1[C@H]2OC(=O)[C@@H]1[C@]1(O)C[C@H]3O[C@]34C(=O)O[C@H]2[C@]14C	5.35

====

# measurement_target: T6′A ELIC (Dickeya chrysanthemi, UniProt P0C7B7, T236A)
# Construct: expressed in transfected cells; host or cells: Xenopus laevis oocytes (cRNA injection)
# measurement_protocol: GABA activation of T6′A ELIC, two-electrode voltage clamp in Xenopus oocytes
# Type: cell-based, Erwinia chrysanthemii
# test_settings: GABA pEC50, T6′A ELIC

molecule	reading_unit	EC50
NCCCC(=O)O [GABA, γ-aminobutyric acid]	µM	851

====

# measurement_target: F16′S ELIC (Dickeya chrysanthemi, UniProt P0C7B7, F246S)
# Construct: expressed in transfected cells; host or cells: Xenopus laevis oocytes (cRNA injection)
# measurement_protocol: Inhibition of GABA-elicited currents of F16′S ELIC in Xenopus oocytes
# Format: cell-based, Erwinia chrysanthemii
# test_settings: F16′S ELIC; inhibition measured at the GABA EC50; read-out: IC50
pIC50: −log10 of the molar value.
measured_endpoint: pIC50

mol_smiles	measurement_target	recorded_result
CCCC(C(=O)OCCN(CC)CC)(c1ccccc1)c1ccccc1	F16′S ELIC (Dickeya chrysanthemi, UniProt P0C7B7, F246S)	5.29
